Assay: NCI Yeast Anticancer Drug Screen. Data for the sgs1 mgt1 strain (AID 161);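 note: 0% = growth of cultures given vehicle only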
Settings: S. cerevisiae sgs1 mgt1 strain, at 50.0 µM, stronger effect = higher value
The panel holds about 79,000 compounds, 15% with a hit somewhere; the sample as a whole holds those more often. Where a SMILES comes first, the peptide text is derived from it. Bridges are numbered along the chain shown (N, C = ends). [ ]: non-standard residue; d: D form. The star is where a group is joined. ξ: configuration not given here. PhAc = O=C(Cc1ccccc1)*; ξP = O=C(O)C1CCCN1
endpoint-name: growth inhibition (%)
Give the value, in units of %, as a plain number.

Given CC(C)CC(=O)c1ccccn1 , state its recorded growth inhibition.
-16.1

Query CCOc1ccccc1NC(=O)C(=O)CC(=O)c1sc(Nc2nnc(-c3ccc(Cl)c(Cl)c3)o2)nc1C next
21.1

Query CCCCCCCCCCCC1=C(O)C(=O)C(I)=C(O)C1=O next
63.1

Query O=C(Cc1ccccc1)N[C@@H]1COC(=O)C2CCCN2C(=O)[C@@H]2CCCN2C1=O (some centres undefined) (PhAc-[dS]-Pro-[ξP]; ester 1-C) next
4.25

Query O=C(OC(=O)c1ccc(Cl)cc1)c1ccc(Cl)cc1 next
5.45

Query Cc1c(O)nc(N)[nH]c1=O next
-22.6

Query O=C(O)c1cccc(SS(=O)(=O)c2cccc(C(=O)O)c2)c1 next
-10.1

Query Clc1ccc2sc(-c3ccccc3)nc2c1 next
-4.45

Query Nc1nnc(-c2ccc(Nc3nc4ccccc4[nH]3)c([N+](=O)[O-])c2)s1 next
27.7

Query CC(=O)OCC1OC(n2ccc(=O)[nH]c2=O)CC1N=[N+]=[N-] (centres undefined) next
1.05

* * *

Assay: NCI Yeast Anticancer Drug Screen. Data for the cln2 rad14 strain (AID 165);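 note: 0% = growth equal to vehicle treated cultures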
Conditions: S. cerevisiae cln2 rad14 strain, at 50.0 µM, stronger effect = higher value
Compounds without any hit were thinned out: in the full panel of roughly 79,000, 15% have a hit.
endpoint-name: growth inhibition (%)
Give the value, in units of %, as a plain number.

// below: answered molecules
- molecule: "Cc1c(C(=O)CC2OC(=O)C(Cl)=C2Cl)c2ccccc2n1C(=O)Nc1ccc(Cl)cc1 (configuration not stated)"
  growth inhibition [%]: -32.4
- molecule: "O=C(O)Cc1[nH]c(=O)[nH]c(=O)c1CCl"
  growth inhibition [%]: -1.3
- molecule: "O=C(Nc1ccc(Cl)cc1)OCc1ccco1"
  growth inhibition [%]: -12.4
- molecule: "CCOC(=O)C(=O)C(/C(=N/N(C)C)C(=O)Nc1ccc(C)cc1C)c1nc2ccccc2[nH]c1=O (configuration not stated)"
  growth inhibition [%]: 11.7
- molecule: "O=[N+]([O-])c1ccc(SC2OC(CO)C(O)C(O)C2O)c([N+](=O)[O-])c1 (configuration not stated)"
  growth inhibition [%]: -14.2

Given c1ccc2[nH]c(N=Nc3cccc4c(N=Nc5cc6ccccc6[nH]5)cccc34)cc2c1 , state its recorded growth inhibition.
18.1

* * *

Assay: NCI Yeast Anticancer Drug Screen. Data for the cln2 rad14 strain (AID 165);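 note: 0% = growth equal to vehicle treated cultures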
Conditions: S. cerevisiae cln2 rad14 strain, at 50.0 µM, stronger effect = higher value
The panel holds about 79,000 compounds, 15% with a hit somewhere; the sample as a whole holds those more often.
endpoint-name: growth inhibition (%)
Give the value, in units of %, as a plain number.

- molecule: "COc1cc(N=C(N)N=C(N)N)c2ncccc2c1"
  units-text: "%"
  observed-result: -41

Given CCOC(=O)CCC(NC(=O)N1CCN(c2c(C)nc(C)[nH]c2=O)CC1)C(=O)OCC (stereo not drawn) , state its recorded growth inhibition.
-4.7

Query CC(=O)C[n+]1ccccc1Sc1ccc(Cl)cc1 next
19.1

Query Cc1onc(-c2c(F)cccc2Cl)c1-c1ncc(-c2ccc(Cl)cc2)o1 next
0.8

* * *

Assay: NCI Yeast Anticancer Drug Screen. Data for the cln2 rad14 strain (AID 165);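 note: 0% = growth equal to vehicle treated cultures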
Details: S. cerevisiae cln2 rad14 strain, at 50.0 µM, stronger effect = higher value
This is part of a sample that, as a whole, favours compounds with a hit. Of some 79,000 tested, about 15% had one in any assay.
# growth inhibition listing for each entry below
Give the value, in units of %, as a plain number.

// below: answered molecules
- molecule: "CN(C)c1ccc2c(c1)C(O)c1ccccc1-2 (configuration not stated)"
  growth inhibition, %: -0.65
- molecule: "O=C1c2cccnc2-c2ncccc21"
  growth inhibition, %: 9.8
- molecule: "CCCCCCCCCCCCCCCCCCNC(=O)NCc1ccncc1"
  growth inhibition, %: -4.3
- molecule: "CC(=O)c1cc(CC2Cc3cc4c(cc3C2=O)CCC4)cc2c1CCC2 (configuration not stated)"
  growth inhibition, %: 9
- molecule: "COc1ccc(S(=O)(=O)c2ccc(F)cc2)cc1"
  growth inhibition, %: -5.8

Given CC(C)N1COC(c2ccccc2)C1 (configuration not stated) , state its recorded growth inhibition.
-17.9

Query CC1=NN(c2ccccc2)C(=O)C1=C1SCCCS1 next
16.4

* * *

Assay: NCI Yeast Anticancer Drug Screen. Data for the sgs1 mgt1 strain (AID 161);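 note: 0% = growth of cultures given vehicle only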
Settings: S. cerevisiae sgs1 mgt1 strain, at 50.0 µM, stronger effect = higher value
Compounds without any hit were thinned out: in the full panel of roughly 79,000, 15% have a hit.
endpoint-name: growth inhibition (%)
Give the value, in units of %, as a plain number.

// below: answered compounds
- compound: "Nc1nc2c([nH]c(=O)n2C2OC(CO)C(O)C2O)c(=O)n1N (stereo unspecified)"
  growth inhibition / %: 18.8
- compound: "CC(CC(=O)Nc1ccccc1)C(=O)O (stereo unspecified)"
  growth inhibition / %: -10.8

Given CC(N)CCC(=O)O (stereo unspecified) , state its recorded growth inhibition.
-15.7

Query COC(=O)c1c2c(cc3c1CC1(Cc4cc5c(cc4C1=O)CCC5)C3)CCC2 (stereo unspecified) next
-2.4

Query COc1ccc(-c2cc(C(O)C3CCCCN3)c3ccccc3n2)cc1 (stereo unspecified) next
-20.9

Query CC1=Nc2nc(=NCCCN(C)C)nc3cccc(n23)N1 next
7.65

Query Cc1ccc2[nH]c(=S)n(CCc3ccccc3)c(=O)c2c1 next
29.9

Query Cc1cc(S(=O)(=O)NC(=NCC(=O)NN)NN)c(S)cc1Cl next
-16.6

Query Cc1cc2ncn(C3OC(CO)C(O)C3O)c2cc1C (stereo unspecified) next
-8.25

Query COc1ccc(CCNC(=O)Cc2ccc(Cl)cc2)cc1OC next
-9.7

Query NC(C(=O)O)c1ccc(C(=O)O)cc1 (stereo unspecified) next
-5.55

* * *

Test: NCI Yeast Anticancer Drug Screen. Data for the mlh1 rad18 strain (AID 175)
Details: S. cerevisiae mlh1 rad18 strain growth inhibition; at 50.0 µM; stronger effect = higher value
About 79,000 compounds went through this panel and 15% of them were active in at least one assay; those are over-represented in the sample as a whole.
endpoint-name: growth inhibition (%)
Give the value, in units of %, as a plain number.

// below: answered compounds
- compound: "CCCC1c2c(ccc3ccccc23)Oc2ccc3ccccc3c21"
  growth inhibition / %: -1.35
- compound: "CCc1nc(N)nc(N)c1-c1ccc(Cl)c(N=CN(C)C)c1"
  growth inhibition / %: 51.5

From here, focus on the item given below.
Given Nc1ccc(C2SCC(=O)N2NS(=O)(=O)c2cccc(C(=O)O)c2)cc1 (stereo unspecified) , state its recorded growth inhibition.
-54.5

* * *

Experiment: NCI Yeast Anticancer Drug Screen. Data for the mlh1 rad18 strain (AID 175)
Details: S. cerevisiae mlh1 rad18 strain growth inhibition; at 50.0 µM
The panel holds about 79,000 compounds, 15% with a hit somewhere; the sample as a whole holds those more often. The source made the active and inactive calls. Rule as the data show it: active = growth inhibition above about 70%; inactive = the rest.
Hi! Could you answer with just one of these? active, inactive

Check out these entries, answers already filled in.
- compound: "CC1NC(C(=O)O)Cc2cc(O)c(O)cc21 (stereo not given)"
  class-name: "inactive"
- compound: "CC(=O)NCc1cc([N+](=O)[O-])ccc1O"
  class-name: "inactive"
- compound: "COC(=O)Nc1cc2c3c(c1)CCCN3CCC2"
  class-name: "inactive"
- compound: "CCC(C(=O)O)C1=CCCc2c(C)ccc(C)c21 (stereo not given)"
  class-name: "inactive"
- compound: "COC(=O)c1c2c(cc3c1CC1(Cc4cc5c(cc4C1=O)CCC5)C3)CCC2 (stereo not given)"
  class-name: "inactive"
- compound: "COc1cc(NCCCCCNC(C)C)c2ncccc2c1"
  class-name: "inactive"

Please find the next compound below.
What classification did O=[N+]([O-])c1ccc(N2CCN=N2)cc1 end up with in this test?
inactive

* * *

# growth inhibition listing for each entry below
Experiment: NCI Yeast Anticancer Drug Screen. Data for the mec2-1 strain (AID 157)
Details: S. cerevisiae mec2-1 strain, at 50.0 µM, stronger effect = higher value
Procedure: Growth inhibition of yeast strains with defined genetic alterations is measured as a screen for potential anti-cancer activity. Selected strains with alterations in DNA damage repair or cell cycle control were exposed to compounds and growth inhibition was measured relative to vehicle treated controls. The strain used in this assay is mec2-1
This is part of a sample that, as a whole, favours compounds with a hit. Of some 79,000 tested, about 15% had one in any assay.
Give the value, in units of %, as a plain number.

// below: answered compounds
- compound: "CCOc1ccccc1/C=C(\\C#N)c1cccc(Cl)c1"
  units-text: "%"
  growth inhibition: 9.75
- compound: "Cc1ccc(NC(=O)CSc2nnc(-c3ccc(N=Cc4ccc(Cl)cc4)cc3)o2)cc1"
  units-text: "%"
  growth inhibition: -36.9
- compound: "C=C(C)COc1ccc(Nc2ccccc2)cc1"
  units-text: "%"
  growth inhibition: 18.4
- compound: "Cc1cc(C)n2nc3c4ccsc4ncc3c2n1"
  units-text: "%"
  growth inhibition: -5.45
- compound: "O=C(O)Cn1ccc(=O)c2ccc([N+](=O)[O-])cc21"
  units-text: "%"
  growth inhibition: 15.2
- compound: "COCCOC(=O)C(O)c1ccccc1 (centres undefined)"
  units-text: "%"
  growth inhibition: 13.9

Given CC1=Nc2nc(=NCCCN(C)C)nc3cccc(n23)N1 , state its recorded growth inhibition.
-1.35

Query COc1ccc(CCNC(=O)Cc2ccc(Cl)cc2)cc1OC next
-4.65

Query Cc1cccc(C[N+](C)(C)CCO)c1C next
-13.2

Query O=C(NCc1ccccc1)C1CCN(Cc2c[nH]c3ccccc23)CC1 next
-4.4

Query Oc1ccc(-c2ccc(O)cc2O)c(O)c1 next
-20.9

Query O=C(NCCO)c1ccc(Cl)cc1 next
-26.3

Query CCN(CC)CCOC(c1ccccc1)c1ccccc1 next
-9.75

Query CCCCCCCC(=O)CC(C)C next
-11.7

Query CCOC(=O)c1n[nH]c(=S)[nH]c1=O next
-1.8

Query CC1(C)NNC(=S)NC1=O next
-13.6
